# Lookup of reported Kd keyed by entry
targetOfAssay: T1, follistatin-Fc human chimera FS315-hFc (Sino Biological Inc. Catalog Number 10685-H02H) (human, UniProt P19883 30-344)
T1 construct: Bought fusion protein; also called Sino Biological FS315-hFc; not shown: human Fc of the bought product
T1 sequence (P19883 other isoform, or with tags, fused parts or gaps H02H H02H): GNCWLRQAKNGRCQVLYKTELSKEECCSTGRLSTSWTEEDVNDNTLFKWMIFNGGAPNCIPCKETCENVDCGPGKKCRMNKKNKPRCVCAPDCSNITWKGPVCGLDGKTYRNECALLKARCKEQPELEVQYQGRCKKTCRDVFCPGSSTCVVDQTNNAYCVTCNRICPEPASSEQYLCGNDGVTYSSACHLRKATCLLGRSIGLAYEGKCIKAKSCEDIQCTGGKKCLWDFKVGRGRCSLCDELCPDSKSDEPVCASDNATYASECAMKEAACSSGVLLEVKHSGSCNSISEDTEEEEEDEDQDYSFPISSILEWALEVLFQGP
assayNotes: Biacore SPR, 25 C; Fc fusion captured with human antibody capture kit, ligand as soluble analyte
Reply numerically in nM, unit not repeated.

INSERT INTO results (binder, quantitativeresult) VALUES
  ('BMP-6 (ligand, UniProt P22004 382-513, looked up) QQSRNRSTQSQDVARVSSASDYNSSELKTACRKHELYVSFQDLGWQDWIIAPKGYAANYCDGECSFPLNAHMNATNHAIVQTLVHLMNPEYVPKPCCAPTKLNAISVLYFDDNSNVILKKYRNMVVRACGCH', 0.9),
  ('GDF-11 (ligand, UniProt O95390 299-407, looked up) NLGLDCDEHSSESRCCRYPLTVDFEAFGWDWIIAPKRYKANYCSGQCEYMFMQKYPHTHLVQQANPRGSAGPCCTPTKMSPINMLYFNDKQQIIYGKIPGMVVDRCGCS', 0.82),
  ('BMP-10 (ligand, UniProt O95393 317-424, looked up) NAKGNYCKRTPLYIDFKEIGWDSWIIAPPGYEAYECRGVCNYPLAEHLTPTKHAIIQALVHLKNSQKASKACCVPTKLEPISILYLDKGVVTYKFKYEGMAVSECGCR', 150);

Here is the next item to consider.
In: What does the record list as Kd for activin (ligand, UniProt P08476 311-426, looked up, also called activin A) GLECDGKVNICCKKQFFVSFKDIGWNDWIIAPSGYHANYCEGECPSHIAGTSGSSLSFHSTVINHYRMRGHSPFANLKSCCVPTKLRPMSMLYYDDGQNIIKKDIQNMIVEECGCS ?
Out: 0.19
